- target.desc: T1, ZFP SBS#1408 (synthetic)
- T1 chain: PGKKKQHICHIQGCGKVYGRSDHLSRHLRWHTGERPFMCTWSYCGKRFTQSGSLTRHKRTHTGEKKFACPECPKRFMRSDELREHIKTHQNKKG
- protocol: EMSA
- run.parameters: tags: MBP fusion
recorded.endpoint: Kd (nM)
Numbers only, in nM.

Lookup: Please look up its Kd: CCGGCAGGG (dsDNA) DNA 1: CCGGCAGGG DNA 2: CCCTGCCGG
Found: 0.305

Taken from patent US20030068675.
